target: T1, mTfR-1 P324A on Expi293 cells (mouse, UniProt Q62351 1-763); assay: FACS, transfected Expi293 cells
T1 construct: whole, on cells
T1 sequence (Q62351 whole entry P324A): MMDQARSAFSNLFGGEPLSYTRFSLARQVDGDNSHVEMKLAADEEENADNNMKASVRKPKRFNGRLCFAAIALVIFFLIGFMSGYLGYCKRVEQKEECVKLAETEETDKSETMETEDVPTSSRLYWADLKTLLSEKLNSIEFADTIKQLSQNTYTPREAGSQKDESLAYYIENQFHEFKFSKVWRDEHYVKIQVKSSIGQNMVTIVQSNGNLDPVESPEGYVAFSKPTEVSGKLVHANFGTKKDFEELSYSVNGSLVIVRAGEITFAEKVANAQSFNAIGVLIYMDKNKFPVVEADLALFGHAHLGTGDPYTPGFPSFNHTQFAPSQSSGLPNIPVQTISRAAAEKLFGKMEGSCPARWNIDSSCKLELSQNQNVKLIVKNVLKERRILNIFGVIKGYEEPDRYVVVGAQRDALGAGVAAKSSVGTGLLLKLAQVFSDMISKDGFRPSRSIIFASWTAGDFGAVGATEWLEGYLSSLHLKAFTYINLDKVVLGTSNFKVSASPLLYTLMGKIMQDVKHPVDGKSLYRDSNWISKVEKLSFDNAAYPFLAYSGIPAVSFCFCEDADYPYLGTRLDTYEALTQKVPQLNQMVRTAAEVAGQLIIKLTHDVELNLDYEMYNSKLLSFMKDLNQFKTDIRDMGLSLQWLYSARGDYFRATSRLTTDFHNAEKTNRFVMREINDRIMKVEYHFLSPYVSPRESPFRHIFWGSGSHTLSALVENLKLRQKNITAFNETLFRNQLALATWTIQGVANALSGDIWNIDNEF
Endpoint Name: % double-positive cells vs WT (%)
Answers are plain numbers, in %.

Completed entries (count: 3):
Clone C variant 13 VNAR-hFc (Fc fusion, not shown: a dimerising Fc or GST, also called Clone C v13; Clone C var; 13) ARVDQTPQTITKETGESLTINCVLRDSNCALSSTYWYRKKSGSTNEENISKGGRYVETVNSGSKSFSLRINDLTVEDSGTYRCNVVQYPQQDNYFWCDVYGDGTAVTVN
25
Clone C variant 18 VNAR-hFc (Fc fusion, not shown: a dimerising Fc or GST, also called Clone C v18; Clone C var; 18) ARVDQTPQTITKETGESLTINCVLRDSNCALSSTYWYRKKSGSTNEENISKGGRYVETVNSGSKSFSLRINDLTVEDSGTYRCNVVQYPQYPNYFWCDVYGDGTAVTVN
39
Clone C VNAR-hFc fusion (Fc fusion, not shown: a dimerising Fc or GST, bivalent VNAR-Fc; also called Clone C-hFc) ARVDQTPQTITKETGESLTINCVLRDSNCALSSTYWYRKKSGSTNEENISKGGRYVETVNSGSKSFSLRINDLTVEDSGTYRCNVVQYPSYNNYFWCDVYGDGTAVTVN
27

**Q:** I have this binder here, 8D3 antibody (anti-mouse TfR-1 control; 8D3-hFc formatted antibody) (antibody, V domains shown) VH: EVQLVESGGGLVQPGNSLTLSCVASGFTFSNYGMHWIRQAPKKGLEWIAMIYYDSSKMNYADTVKGRFTISRDNSKNTLYLEMNSLRSEDTAMYYCAVPTSHYVVDVWGQGVSVTVSS VL: DIQMTQSPASLSASLEEIVTITCQASQDIGNWLAWYQQKPGKSPQLLIYGATSLADGVPSRFSGSRSGTQFSLKISRVQVEDIGIYYCLQAYNTPWTFGGGTKLELK , and I need its recorded % double-positive cells vs WT.
**A:** 39
